- Test system: HOP-62
- method_summary: NCI tumour cell line growth inhibition, 48 h
Calls of active or inactive are those of the source. No stated cut-off is given here; in the data, active = GI50 up to about 1.1 µM and inactive = higher.
Choose one outcome from this list and give only that: yes (1) (active), no (0) (inactive)

The examples below pair each entry with its known result.
COc1ccc(CCN2COc3ccc4ccc(=O)oc4c3C2)cc1OC    no (0)
O=C1c2ccccc2-c2cccc3ccc(Cc4ccccc4)c1c23    no (0)
C=CC[C@@]12CCC(=O)C=C1CCCC2=O    no (0)
CN1N=C(c2ccccc2)c2cc(Cl)ccc2N=C1N/N=C/c1ccc(N(C)C)cc1    no (0)
O=C1C(c2c(O)[nH]c3ccc(Br)cc23)=Nc2ccc(Br)cc21    no (0)

Tell me the recorded outcome of this test for "COc1cc(/C=C2\N=C(c3ccccc3)N(c3cc4cc(Sc5ccccc5)ccc4[nH]3)C2=O)cc(OC)c1OC" .
no (0)

# lookup: test call for COC1=CC(=O)c2c(cc3c(c2O)-c2c(OC)cc4cc5c(c(O)c4c2OC(=O)CC(C)(O)C3)C(=O)CC(C)(O)C5)C1=O (stereo not drawn)
no (0)

Which outcome did this test record for the compound "O=C(O)C1=C(C(=O)Nc2ccc(NC(=O)C3=C(C(=O)O)C4C=CC3C4)cc2)C2C=CC1C2" ?
no (0)

Call for entry "Brc1ccc(CCNCCN2CCCCC2)cc1" :
no (0)

Status in this test for "Cc1ncc([N+](=O)[O-])n1CCNC(=O)CCCn1cnc([N+](=O)[O-])n1" ?
no (0)

Field: outcome | Entry: "C/C(CC(=O)Nc1ccc(Cl)c(Cl)c1)=N/NC(=O)C[N+](C)(C)C"
no (0)

What did this assay record as the result for CC1C2Cc3ccc(O)cc3C1(C)CCN2C (stereo not drawn) ?
no (0)

So what was the verdict on "S=C(N/N=C(\c1ccccc1)c1ccccn1)NC1CCCCC1" in this test?
no (0)

Assay outcome for Cc1ccc([S+]([O-])C(C)C(Cl)c2ccccc2)cc1 (stereo not drawn) : what was it?
no (0)

How did this test come out for "CCc1n[nH]c(=O)n1N=C(c1ccccc1)c1ccccc1" ?
no (0)

What did the test return for CC12CC(c3ccccc3O1)C(C(=O)Nc1ccc(F)cc1)C(=O)N2 (stereo not drawn) ?
no (0)

Test call, this compound: "CCN(CC)CCCNc1nncc2cc3c([nH]c4ccccc43)c(C)c12"
no (0)

Hi team, can someone confirm the assay call for "C[n+]1c2ccccc2c(/C=N\NS(=O)(=O)c2ccc(O)c(C(=O)O)c2)c2ccccc21" ?
no (0)

Give the logged outcome of this assay for the following compound: "COc1cc(CCNC2=CC(=O)c3nc[nH]c3C2=O)ccc1O"
no (0)

In this assay, the call recorded for N#CCN1c2ccccc2CCC1Cl (stereo not drawn) was what?
no (0)

Hello, I am checking results. What call was entered for COc1ccc(C(=O)CC(c2ccccc2)[C@H]2C(c3ccc(OC)cc3)=Nc3c(nc(SC)n(C)c3=O)NC2c2ccccc2)cc1 (stereo partly drawn) ?
no (0)

In this assay, the call recorded for "CC(=O)O[C@H]1C(=O)[C@@]2(C)[C@H]([C@H](OC(=O)c3ccc(F)cc3)[C@]3(O)C[C@H](OC(=O)[C@H](O)[C@@H](NC(=O)c4ccccc4)c4ccccc4)C(C)=C1C3(C)C)[C@]1(OC(C)=O)CO[C@@H]1C[C@@H]2O" was what?
yes (1)

Fill in: this test's call for COc1cc(C2c3cc4c(cc3OC3(OC)COC(=O)C23)OCO4)cc(OC)c1OC(C)=O (stereo not drawn) is ___
yes (1)

---

- Tested on: BT-549
- method_summary: NCI tumour cell line growth inhibition, 48 h
The source made the active and inactive calls. Cut-off read from the data, not from the text of the source: active = GI50 up to about 1.1 µM and inactive = higher.
Below, each of the molecules is paired with its reported GI50 value.

Known results for molecules:
COc1ccc(-c2cc(-c3cc(F)c(Cl)cc3Cl)[nH]n2)cc1OC    30.2 µM (inactive)
COc1cc(/C=C2\N=C(c3ccccc3)N(c3cc4cc(Sc5ccccc5)ccc4[nH]3)C2=O)cc(OC)c1OC    9.42 µM (inactive)
CC(=O)c1cc(S(=O)(=O)c2ccc(O)c(C(C)=O)c2)ccc1O    23.5 µM (inactive)
SC1=Nc2ccccc2-c2nc(-c3ccccc3)cc(-c3ccc(Br)cc3)c2C1    5.53 µM (inactive)

Now for a further molecule.
Quick one: GI50 for O=CC(O)C(O)C(O)C(O)COC(=O)NCCCCC(=O)C(F)(F)C(F)(F)C(F)(F)C(F)(F)C(F)(F)C(F)(F)C(F)(F)F (stereo not given) ?
16.1 µM (inactive)

---

Listed here are compounds together with their documented GI50.
- System: SNB-19
- method_summary: NCI tumour cell line growth inhibition, 48 h
The source made the active and inactive calls. Rule as the data show it: active = GI50 up to about 1.1 µM and inactive = higher.

COc1cccc(N(CN2C(=O)CCC2OC)C(C)=O)c1 (configuration not stated)    > 100 µM (inactive)

Quick one: GI50 of COC(=O)C(CC(C)C)NC(=O)C(NC(=O)c1ccc(-c2ccc(Cl)cc2Cl)o1)C(C)C (configuration not stated) ?
30.5 µM (inactive)

Consider the compound shown here: "CN(C)CC1=Nc2cccc3cccc(c23)N1" What is its recorded GI50?
> 100 µM (inactive)

---

# GI50 per record follows
- Test system: COLO 205
- method_summary: NCI tumour cell line growth inhibition, 48 h
Active and inactive are the calls of the source. Rule as the data show it: active = GI50 up to about 1.1 µM and inactive = higher.

# GI50 lookup, item CC(C)=CCC(O)[C@](C)(O)[C@H]1[C@H](O)C[C@@]2(C)[C@@H]3CCc4cc(O)c(OC5OC(CO)C(O)C(O)C5O)cc4C3(C)C(=O)C[C@]12C (some centres undefined)
> 100 µM (inactive)

Would you kindly share the measured GI50 for CC1(O)CC(C(F)(F)F)(C(F)(F)F)OC1=O (centres undefined) ?
> 10 µM (inactive)

Sample "CCCCCCCCCc1nn2c(Cc3ccccc3)nnc2s1" — what was its GI50?
17.5 µM (inactive)

State the recorded GI50 for this entry: "COC(=O)C(CCCN1C(=O)c2ccccc2C1=O)C(=O)OC"
> 100 µM (inactive)

Would you mind telling me what GI50 value was observed for "Cc1c2cccc-2ccc2c1[nH]c1ccccc12" ?
1.89 µM (inactive)

Can you look up the measured GI50 of "O=c1cc(/N=N\c2ccc(Cl)cc2)[nH]c(=O)[nH]1" for me?
2.33 µM (inactive)

---

- System: IGROV-1
- method_summary: NCI tumour cell line growth inhibition, 48 h
The source made the active and inactive calls. Rule as the data show it: active = GI50 up to about 1.1 µM and inactive = higher.
measurement_type: GI50

Completed entries (count: 3):
CCOc1ccc2[nH]c3c(C)c4cc[n+](C)cc4c(C)c3c2c1    2.25 µM (inactive)
COc1cc(=O)oc(/C=C/C=C/C=C/C(C)=C\C2(C)OC(C)C(C)(O)C2O)c1C (stereo not drawn)    > 100 µM (inactive)
O=c1cccccc1NCCCCCCCCNc1cccccc1=O    94.2 µM (inactive)

GI50 lookup needed for "CN1CN(c2ccccc2)C2(CCNCC2)C1=O" , thanks.
> 100 µM (inactive)

Reported GI50, compound "SC1=Nc2ccccc2-c2nc(-c3ccccc3)cc(-c3ccc(Br)cc3)c2C1" : ____
1.22 µM (inactive)

Look up GI50 for this compound: COC1=CC(=O)c2c(cc3c(c2O)-c2c(OC)cc4cc5c(c(O)c4c2OC(=O)CC(C)(O)C3)C(=O)CC(C)(O)C5)C1=O (stereo not drawn)
1.9 µM (inactive)

# query: GI50 of entry "Cc1cn([C@@H]2C[C@](C)(CO)N(C)O2)c(=O)[nH]c1=O"
> 100 µM (inactive)

Please look up its GI50: "O=c1c2ccccc2nc(-c2ccccc2)n1NC(=S)Nc1ccc(Cl)cc1"
> 100 µM (inactive)

I would be grateful if you could share the reported GI50 for CC12CC(c3ccccc3O1)C(C(=O)Nc1ccc(Cl)cc1Cl)C(=O)N2 (stereo not drawn) .
24.2 µM (inactive)

I would be grateful if you could share the reported GI50 for CC(=O)NC1C(OCc2ccccc2)OC(COC(=O)CCCCCCCCCCNC(=O)c2cccc3c(=O)c4ccccc4[nH]c23)C(O)C1OC(C)C(=O)NC(C)C(=O)NC(CCC(N)=O)C(N)=O (stereo not drawn) .
50.1 µM (inactive)

---

- Test system: MCF7
- method_summary: NCI tumour cell line growth inhibition, 48 h
Calls of active or inactive are those of the source. Cut-off read from the data, not from the text of the source: active = GI50 up to about 1.1 µM and inactive = higher.
Please state which outcome applies, choosing from 1 (yes) = active, 0 (no) = inactive

Please review the entries below; each comes with its answer.
CC(CCOc1ccc2ccc(=O)oc2c1)C1=CC(=O)C(C)(C)O1 (stereo not drawn)    0 (no)
COC1(CC[C@@H](C)COC2OC(CO)C(O)C(O)C2O)O[C@H]2C[C@H]3[C@@H]4CC=C5C[C@@H](OC6OC(CO)C(O)C(OC7OC(CO)C(O)C(O)C7O)C6OC6OC(C)C(O)C(O)C6O)CC[C@]5(C)[C@H]4CC[C@]3(C)[C@H]2[C@@H]1C (stereo partly drawn)    0 (no)
CC(C)C(C)/C=C\C(C)C1CCC2C3=CC=C4CC(O)CCC4(C)C3CCC21C (stereo not drawn)    0 (no)
CC(O)C(CO)NC(=O)C1CSSCC(NC(=O)C(N)Cc2ccccc2)C(=O)NC(Cc2ccccc2)C(=O)NC(Cc2c[nH]c3ccccc23)C(=O)NC(CCCCN)C(=O)NC(C(C)O)C(=O)N1 (stereo not drawn)    0 (no)
COc1cccc(NCC(=O)Nn2c(-c3ccccc3)nc3ccccc3c2=O)c1    0 (no)
COc1ccc(/C=C/C(=O)NCC(NC(=O)/C=C/c2ccc(OC)c(OC)c2)C(=O)O)cc1OC (stereo not drawn)    0 (no)

// outcome(item) with item = "CC(=O)c1cc(S(=O)(=O)c2ccc(O)c(C(C)=O)c2)ccc1O"
0 (no)

How did this test come out for COc1ccccc1[C@@H]1CCC2CC[C@@H](c3ccccc3OC)[N+]21Cc1ccccc1 (stereo partly drawn) ?
1 (yes)

Identify the outcome logged in this assay for the compound shown: "CC(C)n1c2c([n+](C)c1/C=C/c1ccccc1)C(=O)c1ccccc1C2=O"
1 (yes)

Which outcome was entered for the compound Cn1c(CC(O)c2nc3ccccc3n2C)nc2ccccc21 (stereo not drawn) in this test?
0 (no)

Just curious, what result did "Cc1nn2c(=O)c([N+](=O)[O-])c(/C=C/c3ccccc3)nc2s1" get here?
0 (no)
